Reported cytotoxicity at 10 µM by item:
- Method Notes: Toxicity liver stage against HepG2, at 10uM
- Format: cell-based
- Parameters: test concentration 10 uM, cell line HepG2-A16-CD81EGFP
- Conditions Used: human, HepG2-A16-CD81EGFP cells; read-out: INHIBITION
Write the number in % without appending the unit.

Some compounds with known cytotoxicity at 10 µM results, for comparison:
1) CCC(C(=O)N(Cc1ccccc1OC)C1CC1)n1cccn1 (stereo unspecified): -44
2) Cc1ncsc1CCN(C)C(=O)CN1CCOc2ccccc2C1: 5.72

Q: Fill blank: measured cytotoxicity at 10 µM of the compound "CCOc1ccc(CN2CCC3(CC2)CNC(=O)C3)cn1" is ____.
Result: 0.987

Q: Fill blank: measured cytotoxicity at 10 µM of the compound "CC1CCN(C(=O)[C@H]2C[C@@H]3CCN(CC4CCOCC4)C[C@H]3O2)CC1" is ____.
Result: 5.35

Q: Fill blank: measured cytotoxicity at 10 µM of the compound "Cc1ccc(C(=O)N2CCC3(CC2)CCN(Cc2ccccn2)C3=O)o1" is ____.
Result: 2.49

Q: Fill blank: measured cytotoxicity at 10 µM of the compound "CNC(=O)c1cccnc1NCc1ccc(Cn2ccnc2)cc1" is ____.
Result: 90.3

Q: Fill blank: measured cytotoxicity at 10 µM of the compound "Cc1nc(CC(=O)N2CCN(CCOc3ccccc3)CC2)cs1" is ____.
Result: -15.2

Q: Fill blank: measured cytotoxicity at 10 µM of the compound O=C1N(Cc2cccc(F)c2F)CCCC1(O)CNC1CCCC1 (stereo unspecified) is ____.
Result: 13.8

Q: Fill blank: measured cytotoxicity at 10 µM of the compound "CN(Cc1cc(-c2ccncc2)no1)C(=O)[C@@H]1CSCN1C" is ____.
Result: -2.62

Q: Fill blank: measured cytotoxicity at 10 µM of the compound O=C(c1ccncc1)N1CCOC2(COCCN(c3cccnc3)C2)C1 (stereo unspecified) is ____.
Result: 6.25

Q: Fill blank: measured cytotoxicity at 10 µM of the compound CN(C(=O)Nc1nncs1)C1CCN(c2ccccc2Cl)C1=O (stereo unspecified) is ____.
Result: -7.04
